test: activity coefficient (dimensionless); of the first substance listed, at infinite dilution; xn = mol fraction of the nth substance listed; details: 358.15 K; 101 kPa; Liquid; Chromatography; x1 = 0
Mark class 1 for reported activity coefficient of 2 or greater; mark class 0 for anything smaller.

Recorded results for 4 molecules are shown here.
CCOCC [diethyl ether] + CCCC[n+]1ccc(C)cc1.O=S(=O)([N-]S(=O)(=O)C(F)(F)F)C(F)(F)F :: class 1
CO [methanol] + CCCC[n+]1ccc(C)cc1.O=S(=O)([N-]S(=O)(=O)C(F)(F)F)C(F)(F)F :: class 0
CCO [ethanol] + CCCC[n+]1ccc(C)cc1.O=S(=O)([N-]S(=O)(=O)C(F)(F)F)C(F)(F)F :: class 0
C=CCCCC [hex-1-ene] + CCCC[n+]1ccc(C)cc1.O=S(=O)([N-]S(=O)(=O)C(F)(F)F)C(F)(F)F :: class 1

Task: Check the entry C1CCCCCCC1 [cyclooctane] + CCCC[n+]1ccc(C)cc1.O=S(=O)([N-]S(=O)(=O)C(F)(F)F)C(F)(F)F : does activity coefficient equal or exceed 2?
Result: class 1

Task: Check the entry CCCCCC [hexane] + CCCC[n+]1ccc(C)cc1.O=S(=O)([N-]S(=O)(=O)C(F)(F)F)C(F)(F)F : does activity coefficient equal or exceed 2?
Result: class 1

Task: Check the entry c1ccsc1 [thiophene] + CCCC[n+]1ccc(C)cc1.O=S(=O)([N-]S(=O)(=O)C(F)(F)F)C(F)(F)F : does activity coefficient equal or exceed 2?
Result: class 0

Task: Check the entry CCc1ccccc1 [ethylbenzene] + CCCC[n+]1ccc(C)cc1.O=S(=O)([N-]S(=O)(=O)C(F)(F)F)C(F)(F)F : does activity coefficient equal or exceed 2?
Result: class 0

Task: Check the entry c1ccccc1 [benzene] + CCCC[n+]1ccc(C)cc1.O=S(=O)([N-]S(=O)(=O)C(F)(F)F)C(F)(F)F : does activity coefficient equal or exceed 2?
Result: class 0

Task: Check the entry C1CCCCC1 [cyclohexane] + CCCC[n+]1ccc(C)cc1.O=S(=O)([N-]S(=O)(=O)C(F)(F)F)C(F)(F)F : does activity coefficient equal or exceed 2?
Result: class 1

Task: Check the entry Cc1cccc(C)c1 [1,3-dimethylbenzene] + CCCC[n+]1ccc(C)cc1.O=S(=O)([N-]S(=O)(=O)C(F)(F)F)C(F)(F)F : does activity coefficient equal or exceed 2?
Result: class 0

Task: Check the entry Cc1ccc(C)cc1 [1,4-dimethylbenzene] + CCCC[n+]1ccc(C)cc1.O=S(=O)([N-]S(=O)(=O)C(F)(F)F)C(F)(F)F : does activity coefficient equal or exceed 2?
Result: class 0

Task: Check the entry O [water] + CCCC[n+]1ccc(C)cc1.O=S(=O)([N-]S(=O)(=O)C(F)(F)F)C(F)(F)F : does activity coefficient equal or exceed 2?
Result: class 1

Task: Check the entry CCCO [propan-1-ol] + CCCC[n+]1ccc(C)cc1.O=S(=O)([N-]S(=O)(=O)C(F)(F)F)C(F)(F)F : does activity coefficient equal or exceed 2?
Result: class 0

Task: Check the entry C#CCCCC [1-hexyne] + CCCC[n+]1ccc(C)cc1.O=S(=O)([N-]S(=O)(=O)C(F)(F)F)C(F)(F)F : does activity coefficient equal or exceed 2?
Result: class 1

Task: Check the entry COC(C)(C)C [2-methoxy-2-methylpropane] + CCCC[n+]1ccc(C)cc1.O=S(=O)([N-]S(=O)(=O)C(F)(F)F)C(F)(F)F : does activity coefficient equal or exceed 2?
Result: class 1
